Origin of the recorded values: patent US9006228B2

# subjectOfTest: human GPR119 (Homo sapiens, UniProt Q8TDV5)
# Sequence (Q8TDV5 1-308 limits assumed): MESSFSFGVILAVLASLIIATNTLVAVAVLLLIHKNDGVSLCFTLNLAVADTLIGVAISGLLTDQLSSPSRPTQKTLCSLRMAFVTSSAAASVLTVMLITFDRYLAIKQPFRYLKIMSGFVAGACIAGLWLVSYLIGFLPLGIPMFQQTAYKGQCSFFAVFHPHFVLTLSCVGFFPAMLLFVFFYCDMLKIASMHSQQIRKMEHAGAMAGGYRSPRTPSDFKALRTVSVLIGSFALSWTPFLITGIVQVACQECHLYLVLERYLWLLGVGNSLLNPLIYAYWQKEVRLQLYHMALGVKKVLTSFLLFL
# assayComment: Measurement of GPR119 signaling (cAMP assay; LANCE kit or HTRF) in HEK293 cells stably transfected with human GPR119
# studyConditions: agonist-stimulated cAMP in HEK293 cells expressing human GPR119
pEC50: −log10 of the molar value.
experimentalReadout: pEC50

> print(dat)
                                    molecule                             subjectoftest  measuredvalue
 1  CS(=O)(=O)c1ccc(COC[C@@H]2C[C@@H]2C2CCN(c3nc(C4CC4)no3)CC2)cc1  human GPR119 (Homo sapiens, UniProt Q8TDV5)           8.49
 2  CC1(OC(=O)N2CCC([C@H]3C[C@H]3COCc3ccc(-n4cnnn4)cc3F)CC2)CC1  human GPR119 (Homo sapiens, UniProt Q8TDV5)           8.32
 3  CC(C)(O)c1cnc(N2CCC([C@H]3C[C@H]3COCc3ccc(S(C)(=O)=O)cc3F)CC2)nc1 [Example 75]  human GPR119 (Homo sapiens, UniProt Q8TDV5)           7.60
 4  CCc1cnc(N2CCC([C@H]3C[C@H]3COCc3ccc(-c4cnccn4)cc3)CC2)nc1  human GPR119 (Homo sapiens, UniProt Q8TDV5)           8.01
 5  CCc1cnc(N2CCC([C@H]3C[C@H]3COCc3ccc(-c4ccnnc4)cc3)CC2)nc1  human GPR119 (Homo sapiens, UniProt Q8TDV5)           8.72
 6  CS(=O)(=O)c1c(F)cc(COC[C@@H]2C[C@@H]2C2CCN(c3ncc(Cl)cn3)CC2)cc1F  human GPR119 (Homo sapiens, UniProt Q8TDV5)           9.22
 7  Cc1cnc(N2CCC([C@H]3C[C@H]3COCc3ccc(S(C)(=O)=O)cn3)CC2)nc1  human GPR119 (Homo sapiens, UniProt Q8TDV5)           7.97
 8  CC(C)Cc1cnc(N2CCC([C@H]3C[C@H]3COCc3ccc(S(C)(=O)=O)cc3)CC2)nc1  human GPR119 (Homo sapiens, UniProt Q8TDV5)           9.89
 9  CCS(=O)(=O)c1ccc(COC[C@@H]2C[C@@H]2C2CCN(c3ncc(COC)cn3)CC2)c(F)c1  human GPR119 (Homo sapiens, UniProt Q8TDV5)           8.55
10  COc1cnc(N2CCC([C@H]3C[C@H]3COCc3ccc(S(C)(=O)=O)cn3)CC2)nc1  human GPR119 (Homo sapiens, UniProt Q8TDV5)           7.82
11  CCc1cnc(N2CCC([C@H]3C[C@H]3COCc3ccc(-c4ccc(OC)nn4)cc3F)CC2)nc1  human GPR119 (Homo sapiens, UniProt Q8TDV5)           9.10
12  CCS(=O)(=O)c1ccc(COC[C@@H]2C[C@@H]2C2CCN(c3nc(C(C)C)no3)CC2)cc1F  human GPR119 (Homo sapiens, UniProt Q8TDV5)           9.40
13  CS(=O)(=O)c1c(F)cc(COC[C@@H]2C[C@@H]2C2CCN(c3ncc(F)cn3)CC2)cc1F  human GPR119 (Homo sapiens, UniProt Q8TDV5)           8.49
14  CS(=O)(=O)c1ccc(COC[C@@H]2C[C@@H]2C2CCN(c3ncc(C#N)cn3)CC2)c(F)c1  human GPR119 (Homo sapiens, UniProt Q8TDV5)           8.03
15  CCc1cnc(N2CCC([C@H]3C[C@H]3COCc3ccc(C[C@H](C)O)cc3)CC2)nc1  human GPR119 (Homo sapiens, UniProt Q8TDV5)           8.80
